PROTOCOL: inhibitors of MITF-driven TRPM1 reporter, dose response, cell-based, SK-MEL-5, luciferase, dry powder, set 5 (AID 624363)
CONDITIONS: SK-MEL-5 TRPM1 promoter luciferase reporter, 24 h; at 35 µM (top of the series)
The following compounds are listed with their measured activity change, negative = inhibition values.
Just the number in %, nothing appended.

Some compounds with known activity change, negative = inhibition results, for comparison:
STRUCTURE SMILES | VALUE REPORTED
O=C(NC1=C(N2CCN(c3ccccc3)CC2)C(=O)c2ccccc2C1=O)c1ccccc1 | -32.8
O=C1C(NS(=O)(=O)c2ccc(Br)cc2)=C(N2CCN(c3ccccc3)CC2)C(=O)c2ccccc21 | -44.3
O=C(NC1=C(c2ccc(Oc3ccccc3)cc2)C(=O)c2ccccc2C1=O)c1ccccc1 | -5.77
COc1ccc(C2=C(NC(=O)c3ccc4ccccc4c3)C(=O)c3ccccc3C2=O)cc1 | -15.2
C=CCNC1=C(NCC=C)C(=O)c2ccccc2C1=O | -12.8

Identify activity change, negative = inhibition associated with the compound `COc1ccc(C2=C(NC(=O)c3ccc(OC)cc3-c3cccc(OC)c3)C(=O)c3ccccc3C2=O)cc1`
-14.7
